Data provenance: paper PMC8618917

test: Rat pharmacokinetic study; details: male, Sprague-Dawley, plasma, po, 2 mg/kg
Property measured: AUC (ng·h/mL)
Field: numeric (ng·h/mL). Do not append units.

Look at this compound and give its reported AUC. "C[C@]12CC[C@H](O)C[C@@]1(O)CC[C@@H]1[C@@H]2CC[C@]2(C)[C@@H](c3ccc(=O)oc3)CC[C@]12O" 488

====

assay: Plasma protein binding, mice (rapid equilibrium dialysis); conditions: mouse
Property measured: fraction unbound at 4 h, 5 μM
I'd appreciate a reply containing only the number, no unit.

- Mol: "C[C@]12CC[C@H](O)C[C@@]1(O)CC[C@@H]1[C@@H]2CC[C@]2(C)[C@@H](c3ccc(=O)oc3)CC[C@]12O"
  Reported value: 0.022

Could you now consider this next compound?
GET /values?readout=fraction unbound at 4 h, 5 μM&item= "CC(=O)O[C@H]1[C@H]2O[C@]23[C@@H]2CC[C@@H]4C[C@@H](O)CC[C@]4(C)[C@H]2CC[C@]3(C)[C@H]1c1ccc(=O)oc1" 0.092
